# study-system: Prostaglandin G/H synthase 2 (Homo sapiens, UniProt P35354)
# Sequence (P35354 whole entry): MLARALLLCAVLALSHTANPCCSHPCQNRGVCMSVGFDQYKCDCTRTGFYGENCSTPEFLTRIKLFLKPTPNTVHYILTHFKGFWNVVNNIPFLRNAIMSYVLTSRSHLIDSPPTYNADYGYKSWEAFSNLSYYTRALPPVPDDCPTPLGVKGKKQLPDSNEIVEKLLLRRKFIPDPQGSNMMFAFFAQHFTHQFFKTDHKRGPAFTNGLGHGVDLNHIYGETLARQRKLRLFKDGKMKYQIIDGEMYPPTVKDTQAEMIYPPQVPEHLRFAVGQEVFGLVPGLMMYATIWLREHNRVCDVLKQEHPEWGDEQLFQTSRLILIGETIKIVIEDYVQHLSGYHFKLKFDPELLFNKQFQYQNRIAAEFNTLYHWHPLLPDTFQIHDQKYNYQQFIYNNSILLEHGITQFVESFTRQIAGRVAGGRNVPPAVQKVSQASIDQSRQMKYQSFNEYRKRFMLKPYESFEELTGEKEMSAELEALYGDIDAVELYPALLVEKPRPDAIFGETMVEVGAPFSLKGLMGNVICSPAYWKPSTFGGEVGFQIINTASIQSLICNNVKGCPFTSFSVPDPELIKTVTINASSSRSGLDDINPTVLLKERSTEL
# test: Inhibition of recombinant human COX2 expressed in baculovirus infected Sf9 insect cells using arachidonic acid as substrate preincubated for 10 mins followed by substrate addition and measured after 10 mins by ELISA

molecule | IC50 (nM)
CCC(=O)NS(=O)(=O)c1ccc(-c2c(-c3ccccc3)noc2C)cc1 [PARECOXIB] | 5

// provenance: ChEMBL document CHEMBL4325858
